# ASSAY COMMENT: Therapeutic index, ratio of CC50 for human C8166 cells to EC50 for HIV1
# Assay type: cell-based
# CONDITION INFO: read-out: Ratio CC50/EC50
MEASURE NAME: selectivity ratio

Use the examples below as a reference point.
C=C1[C@@H]([C@H](C)CC/C=C(/C)C(=O)O)CC[C@@]2(C)[C@@H]3CC[C@@H](C(C)(C)C(=O)O)[C@](C)(CC(=O)O)C3=C[C@@H]12 :: > 2.9
Cc1cn([C@H]2C[C@H](N=[N+]=[N-])[C@@H](CO)O2)c(=O)[nH]c1=O [ZIDOVUDINE] :: > 230000

# lookup: selectivity ratio of C=C1[C@@H]([C@H](C)CC/C=C(/C)C(=O)O)CC[C@@]2(C)[C@@H]3CC[C@@H](C(=C)C)[C@](C)(CCC(=O)O)C3=C[C@@H]12
2.3

* * *

# ASSAY COMMENT: Therapeutic index, ratio of CC50 for human C8166 cells to EC50 for HIV1
# Assay type: cell-based
# CONDITION INFO: read-out: Ratio CC50/EC50
Listed here are molecules together with their documented selectivity ratio.
Answer field: number only, no words.

C=C1[C@@H]([C@H](C)CC/C=C(/C)C(=O)O)CC[C@@]2(C)[C@@H]3CC[C@@H](C(C)(C)O)[C@](C)(CCC(=O)O)C3=C[C@@H]12 :: 2.4

Next, consider the following molecule.
GET /values?readout=selectivity ratio&item= C=C1[C@@H]([C@H](C)CC/C=C(/C)C(=O)O)CC[C@@]2(C)[C@@H]3CC[C@@H](C(C)(C)O)[C@](C)(CCC(=O)OC)C3=C[C@@H]12
1.8

* * *

# ASSAY COMMENT: Cytotoxicity against human C8166 cells by MTT assay
# Type: cell-based
MEASURE NAME: CC50 (µM)
Hi! Could you send only the number? It should be in µM, unit omitted.

Cc1cn([C@H]2C[C@H](N=[N+]=[N-])[C@@H](CO)O2)c(=O)[nH]c1=O [ZIDOVUDINE] :: 4690
C=C(C)[C@@H]1CC[C@@H]2C(=C[C@@]3(OC)C(=C)[C@@H]([C@H](C)CC/C=C(/C)C(=O)O)CC[C@@]23C)[C@@]1(C)CCC(=O)O :: 184

Which CC50 value is on record for C=C1[C@@H]([C@H](C)CC/C=C(/C)C(=O)O)CC[C@@]2(C)[C@@H]3CC[C@@H](C(C)(C)O)[C@](C)(CCC(=O)OC)C3=C[C@@H]12 ?
142

* * *

# ASSAY COMMENT: Cytotoxicity against human C8166 cells by MTT assay
# Type: cell-based
MEASURE NAME: CC50 (µM)
Give your result in µM as a bare value.

Some solved entries appear below for comparison.
C=C1[C@@H]([C@H](C)CC/C=C(/C)C(=O)O)CC[C@@]2(C)[C@@H]3CC[C@@H](C(=C)C)[C@](C)(CCC(=O)O)C3=C[C@@H]12 :: 203
C=C1[C@@H]([C@H](C)CC/C=C(/C)C(=O)O)CC[C@@]2(C)[C@@H]3CC[C@@H](C(C)(C)O)[C@](C)(CCC(=O)O)C3=C[C@@H]12 :: 143

Next, consider the following compound.
I'd like to know its CC50. The compound in question is CC1=C([C@H](C)CC/C=C(/C)C(=O)O)CC[C@@]2(C)[C@@H]3CC[C@H]4C(C)(C)C(=O)CC[C@]4(C)C3=C[C@@H]12
116

* * *

# ASSAY COMMENT: Therapeutic index, ratio of CC50 for human C8166 cells to EC50 for HIV1
# Assay type: cell-based
# CONDITION INFO: read-out: Ratio CC50/EC50
MEASURE NAME: selectivity ratio
Format: numeric value only, no unit, no commentary.

C=C(C)[C@@H]1CC[C@@H]2C(=C[C@@]3(OC)C(=C)[C@@H]([C@H](C)CC/C=C(/C)C(=O)O)CC[C@@]23C)[C@@]1(C)CCC(=O)O :: 2.6

Please examine the following record next.
Given CC1=C([C@H](C)CC/C=C(/C)C(=O)O)CC[C@@]2(C)[C@@H]3CC[C@H]4C(C)(C)C(=O)CC[C@]4(C)C3=C[C@@H]12 , state its recorded selectivity ratio.
1.9

* * *

Examples of molecules with documented CC50 follow.
# ASSAY COMMENT: Cytotoxicity against human C8166 cells by MTT assay
# Type: cell-based

Observe how each entry below is paired with its result.
CO[C@@]12CC[C@H]3C(C)(C)C(=O)CC[C@]3(C)C1=CC1=C(C=O)[C@@H]([C@H](C)CC/C=C(/C)C(=O)O)CC[C@]12C :: > 200 µM
C=C1[C@@H]([C@H](C)CC/C=C(/C)C(=O)O)CC[C@@]2(C)C3=C(C[C@@H]12)[C@@](C)(CC(=O)O)[C@H](C(C)(C)C(=O)O)CC3 :: > 200 µM

Now take the following molecule into account.
Could you share which CC50 value was measured for C=C1[C@@H]([C@H](C)CC/C=C(/C)C(=O)O)CC[C@@]2(C)[C@@H]3CC[C@@H](C(C)(C)C(=O)O)[C@](C)(CC(=O)O)C3=C[C@@H]12 ?
> 200 µM
